I'd appreciate it if you could supply MIC values for the items below.
- System: S. aureus GC 4536
- experimentSummary: MIC, broth microdilution
- testParameters: Staphylococcus aureus, GC4536, read-out: MINIMAL INHIBITORY CONCENTRATION MIC, pre-incubated in Mouse Serum
Answer with the value and then the unit.

Respond only with MIC recorded for "CCCN(CC(=O)Nc1cc(N(C)C)c2c(c1O)C(=O)C1=C(O)[C@]3(O)C(=O)C(C(N)=O)=C(O)[C@@H](N(C)C)[C@@H]3C[C@@H]1C2)C(=O)OCOC(=O)c1ccsc1"
0.12 µg/mL

Respond only with MIC recorded for "CCCN(CC(=O)Nc1cc(N(C)C)c2c(c1O)C(=O)C1=C(O)[C@]3(O)C(=O)C(C(N)=O)=C(O)[C@@H](N(C)C)[C@@H]3C[C@@H]1C2)C(=O)OCOC(=O)c1cc(C)cc(C)c1"
0.25 µg/mL

Respond only with MIC recorded for "CCCN(CC(=O)Nc1cc(N(C)C)c2c(c1O)C(=O)C1=C(O)[C@]3(O)C(=O)C(C(N)=O)=C(O)[C@@H](N(C)C)[C@@H]3C[C@@H]1C2)C(=O)OCOC(=O)c1ccc(C(C)(C)C)cc1"
0.5 µg/mL

Respond only with MIC recorded for "CCCCN(CC(=O)Nc1cc(N(C)C)c2c(c1O)C(=O)C1=C(O)[C@]3(O)C(=O)C(C(N)=O)=C(O)[C@@H](N(C)C)[C@@H]3C[C@@H]1C2)C(=O)OCOC(=O)c1ccc(-c2ccccc2)cc1"
2 µg/mL
